# maps each entry to its folding stability dG unfold
Experiment: folding stability dG unfold (combined trypsin and chymotrypsin); higher = more stable

Guide cases for folding stability dG unfold, answers given:
* SAGMVTFIDTTPGKAVVAVEDPATGTSRTIELDLDSPDGRPASLEEIKKVVEELVKEERPDLTVDVKLASAG [r5_293_JUSTAS] | < -1 kcal/mol
* SAGGSAGGSAGGSGSSIPIVVEEKPEVSEDPSRVVLTTKIILKDPNGNSIETITEVELKSAGGSAGGSAGGS [r4_75_JUSTAS] | < -1 kcal/mol
* SAGGSAGGSAKIKVEWEQHPEGYNLVKVEIPNPDNGKKKKVEGPFDSLEDAEDEAKELLKKSAGGSAGGSAG [r3_174_TrROS] | < -1 kcal/mol

// query Give a short answer stating reported folding stability dG unfold for SAGGTITIELDGVTIEVRVEEKDGTLTLTAKVYNKDTGEVFEIEITITRKEDGSVTITIKITKIEPLPSAGG [r13_1004_TrROS_Hall] .
// result 3.87 kcal/mol

// query Give a short answer stating reported folding stability dG unfold for SAGGSAGGSPPENMKIKIYNPNGEEQTIPVEGVKIRFNGDTHEIPPGDSIPIPPGIDAIEIEKSAGGSAGGS [r12_779_TrROS] .
// result 0.0926 kcal/mol

// query Give a short answer stating reported folding stability dG unfold for SAGGSAGGSAGGKKKKVIEIELKPGEKLTLEQIKEIAKKLNVKKVKVEKVDGKLKIVVESAGGSAGGSAGGS [r10_642_TrROS_Hall] .
// result 0.815 kcal/mol

// query Give a short answer stating reported folding stability dG unfold for SAGGSAGGSAKKYVLLVTYRHPENGETRTVLVEVETEEEVERAVKELAPPEFDEVKVYVLPASAGGSAGGSA [r18_258_TrMRF] .
// result 2.83 kcal/mol

---

# maps each entry to its folding stability dG unfold
Assay: folding stability dG unfold from chymotrypsin proteolysis; higher = more stable
Numbers only here, please. The scale is kcal/mol.

- SAGGSAGGMTVDPENPVVYYPGSDGKAQTYPLSPDSSLKLPDGKVVTVTPVPEGSVSVSVSPVESAGGSAGG [r6_296_JUSTAS]: 1.25

// query Give a short answer stating reported folding stability dG unfold for RKIEINIWRNENHWYVRIKLEHPDGKEQELMFPMDSWDEAREFIRGILANLPPNNVKIEDIEIYPPNGQPIS [r1_169_TrROS] .
// result 4.33

// query Give a short answer stating reported folding stability dG unfold for SAGGSAGGGGTLTIEVDAPAGAKKINIELPGGTVSNLSYDPSTGKATIPFDTPEQAKAVEALVGSAGGSAGG [r6_745_TrMRF] .
// result 0.098

// query Give a short answer stating reported folding stability dG unfold for SAGSSMSLPLPEEIEIEIPNPGLSLEEIKKIVADKLGLKIVSVEEEEGRLVFKAENGIPIRVKIEEPGKSAG [r5_350_JUSTAS] .
// result 2.38

// query Give a short answer stating reported folding stability dG unfold for SAGMEVEILGAEVDPETGVVKVVAVGRDPVTGVLVVDEITIKGDTVEIRREVYFPNTGKKAETTATIPLSAG [r5_150_TrMRF] .
// result 1.43

---

Test: folding stability dG unfold (combined trypsin and chymotrypsin); higher = more stable
The following ranges of folding stability dG unfold define the classes used here: low (below 0.8 kcal/mol), moderate (0.8 kcal/mol to below 3 kcal/mol), high (3 kcal/mol or more)

- SAGGGMSPVGTTTSTSPSGVVTTTTTLEAPPPVVTTTTTTTTPVPPPLPPRPPYGPENRARALARAASAGGS [r16_6_JUSTAS]: low

// query Category lookup for the sequence SAGGSAGGSAGGSSMAIKKVSEFLLRPENGELIKVTVYRKPGPETIVTVIGDKTYTFEPSAGGSAGGSAGGS [r4_114_JUSTAS]
// result low

---

# maps each entry to its folding stability dG unfold
Experiment: folding stability dG unfold from chymotrypsin proteolysis; higher = more stable
Numbers only here, please. The scale is kcal/mol.

Guide cases for folding stability dG unfold, answers given:
• SAGGSPAPVRRTVTQLLKVGDKLETRVVEEVVWVPEPPPPPVIPIPEDRGLNEEPVPGTRELTFDAGSAGGS [r8_28_JUSTAS] = 0.268
• SAGGGNKVLLVVEAESPEVLEEKIREAEEAFGFTVTPLRREPLPDDRYRLVLEIDAPPEVVEFFKKESAGGS [r8_357_TrMRF] = 1.35

// query Give a short answer stating reported folding stability dG unfold for SAGMVLKITVKDKKTKEEREIVIEIPEDDPELKKLGIKSPEELAKKLAEELKKEGIEVEEVKVEAYPLPSAG [r5_722_TrROS_Hall] .
// result 2.04

// query Give a short answer stating reported folding stability dG unfold for SAGGSAGGSAGMKNKNYKVYTYKINIIDPGYENTTIIVEPNPAKPKAKPITIPIIIVEPASAGGSAGGSAGG [r11_257_TrMRF] .
// result 1.03

// query Give a short answer stating reported folding stability dG unfold for SAMPIPNKNVVIRAKRSPDGTWDLTITVDNEKLGSKKAKTEEELKALVEEIAKEIAEKLGPGNVTVVEESAG [r14_791_JUSTAS] .
// result 2.54

// query Give a short answer stating reported folding stability dG unfold for SAGGSAGGSAGFKSVTIGSGTGGLTLTITDVTTGKNTVVNATSLEEAEKIGKEKGWKIILSSAGGSAGGSAG [r3_67_JUSTAS] .
// result -0.281

---

# maps each entry to its folding stability dG unfold
Assay: folding stability dG unfold (combined trypsin and chymotrypsin); higher = more stable

- SAGGSAGGMITDADGNAFEVASAEPFELANGEPVIRFRFKGSGEIRTVPAADIPDGIPEEAKFESAGGSAGG [r6_370_TrMRF]: < -1 kcal/mol
- SAGGSAGGSAKKLKIPNPDGKTYEMKVEDVDPENNNVMIRNPGNGEPFHFKKSDAKRIAEELSAGGSAGGSA [r18_161_TrROS]: < -1 kcal/mol
- SAGGMTVTVPREGPVTEEDVEKIAAELAAQGLKEVPLVVIETEKGSLPDGRPTELVRERTYYYEYPESAGGS [r16_44_JUSTAS]: < -1 kcal/mol
- SAVKVEEKDDVTIKTYTEPEGGLELVETIDKNGNLIAKTEIKVERKPDAKGNLYVTKVSTKTTVLNPNPISA [r9_262_JUSTAS]: < -1 kcal/mol
- SAGGSAGGSAVLRSALDRPVPVLLLTVPRDEVPEEEIRSLLPPELAEQFLKTAPKDSVIVASAGGSAGGSAG [r3_326_TrMRF]: < -1 kcal/mol

// query Give a short answer stating reported folding stability dG unfold for SEYSRIEFEDYTVLVVKKTLPNGKPLYLVRLYRKEDPKVDPVEVDSPEEAEEAVKELLKKHLPGEEVEKESA [r9_749_TrMRF] .
// result 3.08 kcal/mol

// query Give a short answer stating reported folding stability dG unfold for SAGGSAGGSAGDPNYVQVTIRMPMERRNPEDGKWERNPMEITIPFKSKDQADKIAEEIGISAGGSAGGSAGG [r11_984_TrROS] .
// result -0.375 kcal/mol

// query Give a short answer stating reported folding stability dG unfold for SAGGSAGGSAGGRKRYRFKPGQRLEPRLVFRLKLRLELERDEDGNLSLKLELEIEEVRLLSAGGSAGGSAGG [r7_572_TrROS_Hall] .
// result 4.09 kcal/mol

// query Give a short answer stating reported folding stability dG unfold for SAGGKEVLTVTVEVEIDGVLIRVEAEVTLDEDGNLTVTITRIEIRPLPPPKIDLRDLTDEQRKELGIESAGG [r13_964_TrROS_Hall] .
// result 1.93 kcal/mol

// query Give a short answer stating reported folding stability dG unfold for SAGMTFTTVTVERPLGSPEGKPVSLEEVEEYAKKVAEELEPNGFPVENITIELLPDGTAVITMTIKKPLSAG [r14_470_JUSTAS] .
// result 1.94 kcal/mol

---

Test: folding stability dG unfold from trypsin proteolysis; higher = more stable
Observed property: folding stability dG unfold
Param answer (str): number followed by unit.

Guide cases for folding stability dG unfold, answers given:
• SAPPNHRMVMYEIPIPPGMEIGDEIKLKIKVPGKEYPIKIDRIPNLPPGMRVRIMFNLDNGQFMIQILPSAG [r14_554_TrROS] = 2.52 kcal/mol
• SAGGSAGGSADKIEIRVKLKIPNTDEILTFPIWVDPENPEEVAKAIAAWLEKNGYEIESFEGSAGGSAGGSA [r18_3_TrMRF] = 3.53 kcal/mol
• SMTISIPGGITITIEPKPNSYTLTVSFPDGSTVTRPVDPSDLTSAIKAVIREALRRADPNITEEEIEKLLSA [r9_634_JUSTAS] = 4.39 kcal/mol
• SAGGAFIKDFDVEEDPNGHRKFKFELPNGWKYDITIHPDFPQIEIKPIKPIEPPPIPADDPEQAEEQSAGGS [r16_482_TrROS] = 0.699 kcal/mol
• SAGDWYIVIKITIYHPNKREREFPIVFDWKDGKIEIAPEFLQNIAEELGLPPNMKIEIEIVEIMPPNDSAGG [r19_287_TrROS] = 1.75 kcal/mol

// query Give a short answer stating reported folding stability dG unfold for SAGGSAGGSPKPIPIKIDEVWPNPDNGKDYIVKIEFPDGKKHTFTSPEDIRKLPGFDVEVYELSAGGSAGGS [r20_192_TrROS] .
// result 0.123 kcal/mol

// query Give a short answer stating reported folding stability dG unfold for MMTKEEIEKLAEELAKELEKKGYKIVKVEIEEVKPGEVKIKVDGKEITITLKDGRKLRIKVEVKKLPKEELS [r1_31_TrROS_Hall] .
// result 1.97 kcal/mol

// query Give a short answer stating reported folding stability dG unfold for SAGGSAGGSAGGLEIEFWFFFPDEGYMIEVEWERDPDGPIEPTKITEIHPMPDGQPNPGFSAGGSAGGSAGG [r11_750_TrROS] .
// result 1.81 kcal/mol
